Molecular target: Human immunodeficiency virus type 1 reverse transcriptase (Human immunodeficiency virus 1, UniProt Q72547)
pIC50: −log10 of the molar value.
Label scheme for pIC50: lower than 5 is FALSE, 5 and above is TRUE.

-- ask Can "CCOC(=O)C(=O)CC(=O)/C=C/c1cccn1Cc1ccccc1C#N" be said to have pIC50 at or above 5?
-- reply FALSE

-- ask Can "O=C(/C=C/c1cccn1Cc1ccc(Cl)cc1Cl)CC(=O)C(=O)O" be said to have pIC50 at or above 5?
-- reply TRUE

-- ask Can "O=C(/C=C/c1cccn1Cc1cc(F)cc(F)c1)CC(=O)C(=O)O" be said to have pIC50 at or above 5?
-- reply FALSE

-- ask Can "O=C(/C=C/c1cccn1Cc1cc(F)ccc1F)CC(=O)C(=O)O" be said to have pIC50 at or above 5?
-- reply TRUE

Here is another compound to look at.
-- ask Can "CCOC(=O)C(=O)CC(=O)/C=C/c1cccn1Cc1ccccc1OCC" be said to have pIC50 at or above 5?
-- reply FALSE

* * *

Target: Human immunodeficiency virus type 1 integrase (Human immunodeficiency virus 1, UniProt Q7ZJM1)
Sequence (Q7ZJM1 whole entry): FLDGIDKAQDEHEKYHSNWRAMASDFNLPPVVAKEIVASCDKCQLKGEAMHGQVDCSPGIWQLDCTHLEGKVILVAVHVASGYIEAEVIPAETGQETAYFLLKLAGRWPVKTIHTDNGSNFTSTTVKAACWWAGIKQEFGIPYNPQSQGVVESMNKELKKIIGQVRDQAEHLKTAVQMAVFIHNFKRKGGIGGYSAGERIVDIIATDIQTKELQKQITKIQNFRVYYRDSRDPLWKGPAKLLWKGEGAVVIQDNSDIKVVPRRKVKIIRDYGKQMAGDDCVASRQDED
Classify: Y when IC50 is strictly less than 1000 nM; N when IC50 is not.

Worked examples, 5 molecules total:
-- ask Does the reported IC50 of the following molecule sit strictly below 1000 nM? "CCOC(=O)C(=O)CC(=O)/C=C/c1cccn1Cc1cccc(C)c1"
-- reply N

-- ask Does the reported IC50 of the following molecule sit strictly below 1000 nM? "O=C(/C=C/c1cccn1Cc1cc(F)ccc1F)CC(=O)C(=O)O"
-- reply Y

-- ask Does the reported IC50 of the following molecule sit strictly below 1000 nM? "CCOC(=O)C(=O)CC(=O)/C=C/c1cccn1Cc1ccccc1C#N"
-- reply N

-- ask Does the reported IC50 of the following molecule sit strictly below 1000 nM? "O=C(/C=C/c1cccn1Cc1cc(F)cc(F)c1)CC(=O)C(=O)O"
-- reply N

-- ask Does the reported IC50 of the following molecule sit strictly below 1000 nM? "CCOC(=O)C(=O)CC(=O)/C=C/c1cccn1Cc1ccccc1OCC"
-- reply N

Further cases:
-- ask Does the reported IC50 of the following molecule sit strictly below 1000 nM? "Cc1ccccc1Cn1cccc1/C=C/C(=O)CC(=O)C(=O)O"
-- reply Y

-- ask Does the reported IC50 of the following molecule sit strictly below 1000 nM? "COc1ccccc1Cn1cccc1/C=C/C(=O)CC(=O)C(=O)O"
-- reply Y

-- ask Does the reported IC50 of the following molecule sit strictly below 1000 nM? "CCOC(=O)C(=O)CC(=O)/C=C/c1cccn1Cc1c(Cl)cccc1Cl"
-- reply N

-- ask Does the reported IC50 of the following molecule sit strictly below 1000 nM? "CCOC(=O)C(=O)CC(=O)/C=C/c1cccn1Cc1cc(Cl)cc(Cl)c1"
-- reply N

-- ask Does the reported IC50 of the following molecule sit strictly below 1000 nM? "CCOC(=O)C(=O)CC(=O)/C=C/c1cccn1Cc1ccccc1C"
-- reply N

-- ask Does the reported IC50 of the following molecule sit strictly below 1000 nM? "O=C(/C=C/c1cccn1Cc1ccc(Cl)cc1)CC(=O)C(=O)O"
-- reply N

-- ask Does the reported IC50 of the following molecule sit strictly below 1000 nM? "CCOC(=O)C(=O)CC(=O)/C=C/c1cccn1Cc1cc(F)ccc1F"
-- reply Y

-- ask Does the reported IC50 of the following molecule sit strictly below 1000 nM? "N#Cc1cccc(Cn2cccc2/C=C/C(=O)CC(=O)C(=O)O)c1"
-- reply Y

-- ask Does the reported IC50 of the following molecule sit strictly below 1000 nM? "Cc1cc(C)cc(Cn2cccc2/C=C/C(=O)CC(=O)C(=O)O)c1"
-- reply N

-- ask Does the reported IC50 of the following molecule sit strictly below 1000 nM? "O=C(/C=C/c1cccn1Cc1ccc(Cl)cc1Cl)CC(=O)C(=O)O"
-- reply N

-- ask Does the reported IC50 of the following molecule sit strictly below 1000 nM? "CCOC(=O)C(=O)CC(=O)/C=C/c1cccn1Cc1ccc(C#N)cc1"
-- reply N

-- ask Does the reported IC50 of the following molecule sit strictly below 1000 nM? "O=C(/C=C/c1cccn1Cc1cccc(F)c1F)CC(=O)C(=O)O"
-- reply Y

-- ask Does the reported IC50 of the following molecule sit strictly below 1000 nM? "O=C(/C=C/c1cccn1Cc1ccc(F)cc1F)CC(=O)C(=O)O"
-- reply Y

-- ask Does the reported IC50 of the following molecule sit strictly below 1000 nM? "Cc1cccc(Cn2cccc2/C=C/C(=O)CC(=O)C(=O)O)c1"
-- reply N

* * *

Target: Human immunodeficiency virus type 1 reverse transcriptase (Human immunodeficiency virus 1, UniProt Q72547)
Each item that follows carries a reported pIC50.
The quantity pIC50 is defined as the negative base-10 logarithm of the molar concentration.

-- ask Provide pIC50 value for the following molecule: "O=C(/C=C/c1cccn1Cc1cccc(F)c1)CC(=O)C(=O)O"
-- reply 4.85

-- ask Provide pIC50 value for the following molecule: "Cc1cc(C)cc(Cn2cccc2/C=C/C(=O)CC(=O)C(=O)O)c1"
-- reply 4.80

-- ask Provide pIC50 value for the following molecule: "CCOC(=O)C(=O)CC(=O)/C=C/c1cccn1Cc1ccc(OC)cc1"
-- reply 5.17

* * *

Target: Human immunodeficiency virus type 1 reverse transcriptase (Human immunodeficiency virus 1, UniProt Q72547)
READOUT: IC50 (µM)
The answer is to be given in µM; state only the numeric part.

// known answers, use as guide
-- ask Provide IC50 value for the following compound: "CCOC(=O)C(=O)CC(=O)/C=C/c1cccn1Cc1ccc(Cl)cc1Cl"
-- reply 9

-- ask Provide IC50 value for the following compound: "CCOC(=O)C(=O)CC(=O)/C=C/c1cccn1Cc1cc(F)ccc1F"
-- reply 9

-- ask Provide IC50 value for the following compound: "Cc1cccc(Cn2cccc2/C=C/C(=O)CC(=O)C(=O)O)c1"
-- reply 4.6

-- ask Provide IC50 value for the following compound: "CCOc1ccccc1Cn1cccc1/C=C/C(=O)CC(=O)C(=O)O"
-- reply 64

-- ask Provide IC50 value for the following compound: "CCOC(=O)C(=O)CC(=O)/C=C/c1cccn1Cc1ccc(Cl)cc1"
-- reply 8

-- ask Provide IC50 value for the following compound: "CCOC(=O)C(=O)CC(=O)/C=C/c1cccn1Cc1ccc(F)cc1F"
-- reply 19

-- ask Provide IC50 value for the following compound: "CCOC(=O)C(=O)CC(=O)/C=C/c1cccn1Cc1cc(F)cc(F)c1"
-- reply 5

-- ask Provide IC50 value for the following compound: "O=C(/C=C/c1cccn1Cc1ccccc1)CC(=O)C(=O)O"
-- reply 15

Further cases:
-- ask Provide IC50 value for the following compound: "CCOC(=O)C(=O)CC(=O)/C=C/c1cccn1Cc1ccccc1F"
-- reply 6.3

-- ask Provide IC50 value for the following compound: "CCOC(=O)C(=O)CC(=O)/C=C/c1cccn1Cc1ccccc1C"
-- reply 3

-- ask Provide IC50 value for the following compound: "O=C(/C=C/c1cccn1Cc1ccc(F)c(F)c1)CC(=O)C(=O)O"
-- reply 86

* * *

Target: Human immunodeficiency virus type 1 reverse transcriptase (Human immunodeficiency virus 1, UniProt Q72547)
Each item that follows carries a reported IC50.
The answer is to be given in µM; state only the numeric part.

// known answers, use as guide
-- ask Provide IC50 value for the following compound: "O=C(/C=C/c1cccn1Cc1ccc(Cl)cc1)CC(=O)C(=O)O"
-- reply 5

-- ask Provide IC50 value for the following compound: "CCOC(=O)C(=O)CC(=O)/C=C/c1cccn1Cc1cccc(C#N)c1"
-- reply 5

-- ask Provide IC50 value for the following compound: "Cc1ccc(Cn2cccc2/C=C/C(=O)CC(=O)C(=O)O)cc1"
-- reply 17

-- ask Provide IC50 value for the following compound: "COc1ccccc1Cn1cccc1/C=C/C(=O)CC(=O)C(=O)O"
-- reply 16

For the next question, use this compound.
-- ask Provide IC50 value for the following compound: "CCOC(=O)C(=O)CC(=O)/C=C/c1cccn1Cc1cc(C)cc(C)c1"
-- reply 6

* * *

Molecular target: Human immunodeficiency virus type 1 integrase (Human immunodeficiency virus 1, UniProt Q7ZJM1)
READOUT: IC50 (µM)
The answer is to be given in µM; state only the numeric part.

-- ask Provide IC50 value for the following molecule: "CCOC(=O)C(=O)CC(=O)/C=C/c1cccn1Cc1ccccc1F"
-- reply 1

-- ask Provide IC50 value for the following molecule: "CCOC(=O)C(=O)CC(=O)/C=C/c1cccn1Cc1ccc(F)cc1F"
-- reply 1

-- ask Provide IC50 value for the following molecule: "CCOC(=O)C(=O)CC(=O)/C=C/c1cccn1Cc1cc(F)cc(F)c1"
-- reply 0.49

-- ask Provide IC50 value for the following molecule: "N#Cc1ccc(Cn2cccc2/C=C/C(=O)CC(=O)C(=O)O)cc1"
-- reply 1.7

-- ask Provide IC50 value for the following molecule: "O=C(/C=C/c1cccn1Cc1cccc(F)c1)CC(=O)C(=O)O"
-- reply 0.92

-- ask Provide IC50 value for the following molecule: "N#Cc1ccccc1Cn1cccc1/C=C/C(=O)CC(=O)C(=O)O"
-- reply 6

-- ask Provide IC50 value for the following molecule: "CCOc1ccccc1Cn1cccc1/C=C/C(=O)CC(=O)C(=O)O"
-- reply 0.31
